# TESTED TARGET: Estrogen receptor beta (Homo sapiens)
# Sequence (Q92731 whole entry): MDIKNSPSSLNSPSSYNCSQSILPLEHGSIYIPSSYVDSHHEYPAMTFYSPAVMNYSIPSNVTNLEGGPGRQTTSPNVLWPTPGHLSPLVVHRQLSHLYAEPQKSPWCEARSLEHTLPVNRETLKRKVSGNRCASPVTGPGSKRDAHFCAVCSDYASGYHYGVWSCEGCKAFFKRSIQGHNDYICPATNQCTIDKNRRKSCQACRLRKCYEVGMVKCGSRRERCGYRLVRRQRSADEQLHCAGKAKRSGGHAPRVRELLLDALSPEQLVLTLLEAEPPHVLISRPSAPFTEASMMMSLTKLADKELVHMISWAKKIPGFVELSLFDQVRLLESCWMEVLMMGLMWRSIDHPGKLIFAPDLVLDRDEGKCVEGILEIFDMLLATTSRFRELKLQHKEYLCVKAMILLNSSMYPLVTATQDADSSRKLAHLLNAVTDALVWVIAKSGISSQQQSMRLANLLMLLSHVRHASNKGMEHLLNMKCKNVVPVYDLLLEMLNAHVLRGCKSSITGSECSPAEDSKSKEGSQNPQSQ
QUANTITY NAME: IC50 (nM)
Express the result in nM but write the number alone.

The following molecules have reported results that may help.
>>> print(df.to_string())
                                   smiles  quantity_name  result_units  measurement
0   COc1ccc2c(c1)C(Br)=C(c1ccc(O)cc1)C2=O           IC50            nM          199
1  CC1=C(c2ccc(O)cc2)C(=O)c2c(O)cc(O)cc21           IC50            nM          2.4

Next molecule, IC50 to be filled in.
**Q:** Report the value of IC50 obtained on Estrogen receptor beta (Homo sapiens) for CCSC1=C(c2ccc(O)cc2)C(=O)c2cc(O)cc(O)c21 .
**A:** 150
